Tested on: influenza virus H9N2 (A/Chicken/Korea/MS96/96)
Procedure Details: microbe, parasite or virus in culture
Test Conditions: H9N2, MDCK, in Gallus gallus, read-out: EC50, 50% antiviral concentration
Quantity Kind: EC50 (µM)
Report the figure in µM without appending any unit label.

Please report the recorded EC50 for `O=C(/C=C(O)/C=C/c1ccc(O)cc1)/C=C/c1ccc(O)cc1` . 182

* * *

Test system: influenza virus H9N2 (A/Chicken/Korea/MS96/96)
Procedure Details: microbe, parasite or virus in culture
Test Conditions: H9N2, MDCK, in Gallus gallus, read-out: EC50, 50% antiviral concentration
Quantity Kind: EC50

Record CCOC(=O)C1=C[C@@H](OC(CC)CC)[C@H](NC(C)=O)[C@@H](N)C1 [Tamiflu, reference compound] : what is its EC50 with influenza virus H9N2 (A/Chicken/Korea/MS96/96)? < 1000 nM
